# assay_details: Abiotic CYP (aCYP) oxidation, remaining parent compound (Cparent-Ratio)
# condition_label: Table S9, replicate 1
# label = YES if Cparent-Ratio Rep.1 % >= 70% else NO

CC(C)(c1ccc(O)cc1)c1ccc(O)cc1 [BPA, 4,4'-(Propane-2,2-diyl)diphenol, reference compound] :: YES
CC(C)c1cc(C(C)(C)c2ccc(O)c(C(C)C)c2)ccc1O :: NO
Cc1cc(Cc2cc(C)c(O)c(C)c2)cc(C)c1O [TMBPF, Bis(3,5-dimethyl-4-hydroxyphenyl)methane] :: NO
CC(C)Oc1ccc(S(=O)(=O)c2ccc(O)cc2)cc1 :: YES
Cc1ccc(S(=O)(=O)NC(=O)Nc2ccc(Cc3ccc(NC(=O)NS(=O)(=O)c4ccc(C)cc4)cc3)cc2)cc1 :: NO
CC1(C)[C@H](O)C(C)(C)[C@H]1O :: YES
O=S(=O)(c1ccc(O)cc1)c1ccc(OCc2ccccc2)cc1 [BPS-MPE, 4-[4-(benzyloxy)benzenesulfonyl]phenol] :: YES

Could you now look at the following molecule, please?
Exam item: decide whether the reported Cparent-Ratio Rep.1 % for O=S(=O)(c1ccc(O)cc1)c1ccccc1O is at least 70%.
YES

Origin of measurements: paper PMC12392461
